target: Amyloid (AD patient's brain slice) (Homo sapiens); construct: The brain slices were 20 um thick; assay: IC50 determination with [18F]-PiB by ex vivo competition assay using autoradiography staining; type: binding; details: mean of determinations, vs [18F]-PiB; read-out: Average IC50
Sequence (P05067 672-711 limits assumed): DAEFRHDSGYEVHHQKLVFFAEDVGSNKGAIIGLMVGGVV
Output yes for records whose IC50 is lower than 500 nM, no for records at or above 500 nM.

O=CNc1ccc2c(c1)[nH]c1cc(OCCF)ccc12: yes
CN(C)c1ccc2c(c1)[nH]c1cc(OCCOCCOCCF)ccc12: yes
O=CNc1ccc2c(c1)[nH]c1cc(OCCOCCOCCF)ccc12: no
O=CNc1ccc2c(c1)[nH]c1cc(OCCOCCF)ccc12: no
FCCOc1ccc2c(c1)[nH]c1ccccc12: no
CNc1ccc2c(c1)[nH]c1cc(OCCOCCOCCF)ccc12: yes

Now turn to the next compound.
I'd appreciate it if you could check whether `FCCOCCOCCOc1ccc2c(c1)[nH]c1ccccc12` has IC50 smaller than 500 nM.
no
